Target: Chromaffin granule amine transporter (Homo sapiens, UniProt P54219)
Sequence (P54219 whole entry): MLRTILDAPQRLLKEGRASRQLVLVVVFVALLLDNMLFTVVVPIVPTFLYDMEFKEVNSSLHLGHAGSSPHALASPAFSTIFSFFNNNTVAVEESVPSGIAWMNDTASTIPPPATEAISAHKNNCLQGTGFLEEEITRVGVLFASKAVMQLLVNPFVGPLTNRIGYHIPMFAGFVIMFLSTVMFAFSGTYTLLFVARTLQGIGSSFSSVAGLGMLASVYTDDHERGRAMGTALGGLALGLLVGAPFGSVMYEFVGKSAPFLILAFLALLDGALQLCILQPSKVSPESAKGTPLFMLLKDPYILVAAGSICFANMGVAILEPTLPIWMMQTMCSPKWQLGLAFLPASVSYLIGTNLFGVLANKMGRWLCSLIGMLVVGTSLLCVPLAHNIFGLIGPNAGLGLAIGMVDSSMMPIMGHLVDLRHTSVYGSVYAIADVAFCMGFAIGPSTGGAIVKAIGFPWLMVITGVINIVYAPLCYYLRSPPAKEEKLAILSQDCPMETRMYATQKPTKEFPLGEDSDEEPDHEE
pKi: −log10 of the molar value.
observable: pKi

Entry under test: Cn1c(=O)cnn(CCCCN2CCN(c3cccc4ccc(O[11CH3])cc34)CC2)c1=O . Its pKi was < 5.00

---

Target: D(1A) dopamine receptor (Homo sapiens)
Sequence (P21728 whole entry): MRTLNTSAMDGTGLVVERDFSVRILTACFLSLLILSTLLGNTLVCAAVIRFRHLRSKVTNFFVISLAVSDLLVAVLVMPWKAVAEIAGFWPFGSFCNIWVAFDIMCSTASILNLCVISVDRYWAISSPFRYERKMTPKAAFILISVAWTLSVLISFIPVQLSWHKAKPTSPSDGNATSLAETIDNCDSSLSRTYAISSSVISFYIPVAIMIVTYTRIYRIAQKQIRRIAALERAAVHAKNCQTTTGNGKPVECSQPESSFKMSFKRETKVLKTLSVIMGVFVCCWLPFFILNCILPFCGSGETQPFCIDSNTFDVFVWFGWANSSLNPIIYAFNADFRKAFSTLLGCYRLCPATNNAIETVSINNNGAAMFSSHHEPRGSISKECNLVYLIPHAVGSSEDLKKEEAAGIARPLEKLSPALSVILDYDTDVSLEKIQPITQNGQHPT
Experiment: Binding affinity to dopamine D1 receptor
observable: Ki

Entry under test: Cn1c(=O)cnn(CCCCN2CCN(c3cccc4ccc(O[11CH3])cc34)CC2)c1=O . Its Ki was 7.4 µM

---

Molecular target: Adenosine receptor A3 (Homo sapiens, UniProt P0DMS8)
Sequence (P0DMS8 whole entry): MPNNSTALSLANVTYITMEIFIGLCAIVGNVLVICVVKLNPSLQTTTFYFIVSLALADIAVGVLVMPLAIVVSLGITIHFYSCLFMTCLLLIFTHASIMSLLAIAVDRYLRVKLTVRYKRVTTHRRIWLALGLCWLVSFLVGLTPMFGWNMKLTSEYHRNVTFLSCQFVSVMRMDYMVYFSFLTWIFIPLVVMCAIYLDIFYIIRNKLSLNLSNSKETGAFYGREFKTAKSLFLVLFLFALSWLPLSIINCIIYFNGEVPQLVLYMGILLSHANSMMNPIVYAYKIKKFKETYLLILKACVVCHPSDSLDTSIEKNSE
observable: Ki

Entry under test: Cn1c(=O)cnn(CCCCN2CCN(c3cccc4ccc(O[11CH3])cc34)CC2)c1=O . Its Ki was > 10 µM

---

Molecular target: D(3) dopamine receptor (Homo sapiens, UniProt P35462)
Sequence (P35462 whole entry): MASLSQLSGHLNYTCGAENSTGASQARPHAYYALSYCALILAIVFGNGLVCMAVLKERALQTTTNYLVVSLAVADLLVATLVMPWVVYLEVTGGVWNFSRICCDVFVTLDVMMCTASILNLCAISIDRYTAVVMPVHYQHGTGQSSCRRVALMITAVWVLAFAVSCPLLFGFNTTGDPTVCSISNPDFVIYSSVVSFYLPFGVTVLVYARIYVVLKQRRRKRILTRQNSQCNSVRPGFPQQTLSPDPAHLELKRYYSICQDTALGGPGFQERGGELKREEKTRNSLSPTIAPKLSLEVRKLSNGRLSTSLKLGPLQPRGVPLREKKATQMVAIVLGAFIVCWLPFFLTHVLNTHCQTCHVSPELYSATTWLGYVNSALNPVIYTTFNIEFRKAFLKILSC
observable: pKi
pKi here is simply -log10 of the concentration when that concentration is written in mol/L.

The observed pKi for Cn1c(=O)cnn(CCCCN2CCN(c3cccc4ccc(O[11CH3])cc34)CC2)c1=O when tested with D(3) dopamine receptor (Homo sapiens, UniProt P35462) stands at 7.20

---

Experiment: Binding affinity to imidazoline receptor
observable: Ki

Entry under test: Cn1c(=O)cnn(CCCCN2CCN(c3cccc4ccc(O[11CH3])cc34)CC2)c1=O . Its Ki was > 10 µM

---

Experiment: Binding affinity to GABA receptor
observable: Ki

Entry under test: Cn1c(=O)cnn(CCCCN2CCN(c3cccc4ccc(O[11CH3])cc34)CC2)c1=O . Its Ki was > 10 µM

---

Target: Delta-type opioid receptor (Homo sapiens)
Sequence (P41143 whole entry): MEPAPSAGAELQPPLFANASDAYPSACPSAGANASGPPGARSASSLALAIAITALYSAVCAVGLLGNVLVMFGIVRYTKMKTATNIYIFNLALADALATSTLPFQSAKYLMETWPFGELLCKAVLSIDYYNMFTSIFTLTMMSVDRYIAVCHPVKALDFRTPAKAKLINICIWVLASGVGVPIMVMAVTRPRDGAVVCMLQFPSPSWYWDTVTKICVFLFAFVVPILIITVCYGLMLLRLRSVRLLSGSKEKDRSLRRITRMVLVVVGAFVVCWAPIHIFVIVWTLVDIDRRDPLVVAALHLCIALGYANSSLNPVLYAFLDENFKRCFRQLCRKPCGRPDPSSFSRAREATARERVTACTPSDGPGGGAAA
Experiment: Binding affinity to Delta opioid receptor
observable: Ki

The observed Ki for Cn1c(=O)cnn(CCCCN2CCN(c3cccc4ccc(O[11CH3])cc34)CC2)c1=O when tested with Delta-type opioid receptor (Homo sapiens) stands at > 10 µM

---

Biological target: Histamine H2 receptor (Homo sapiens)
Sequence (P25021 whole entry): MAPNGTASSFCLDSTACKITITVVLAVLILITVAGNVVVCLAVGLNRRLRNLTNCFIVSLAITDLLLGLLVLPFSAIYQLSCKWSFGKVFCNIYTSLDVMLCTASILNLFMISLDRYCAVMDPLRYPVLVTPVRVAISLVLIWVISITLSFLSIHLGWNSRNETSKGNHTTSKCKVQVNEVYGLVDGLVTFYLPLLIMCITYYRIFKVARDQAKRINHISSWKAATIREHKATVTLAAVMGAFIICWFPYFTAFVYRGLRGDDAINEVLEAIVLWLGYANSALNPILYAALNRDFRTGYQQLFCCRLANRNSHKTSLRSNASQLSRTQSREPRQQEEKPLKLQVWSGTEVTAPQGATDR
observable: pKi
pKi here is simply -log10 of the concentration when that concentration is written in mol/L.

Entry under test: Cn1c(=O)cnn(CCCCN2CCN(c3cccc4ccc(O[11CH3])cc34)CC2)c1=O . Its pKi was 6.52

---

Molecular target: Cannabinoid receptor 2 (Homo sapiens, UniProt P34972)
Sequence (P34972 whole entry): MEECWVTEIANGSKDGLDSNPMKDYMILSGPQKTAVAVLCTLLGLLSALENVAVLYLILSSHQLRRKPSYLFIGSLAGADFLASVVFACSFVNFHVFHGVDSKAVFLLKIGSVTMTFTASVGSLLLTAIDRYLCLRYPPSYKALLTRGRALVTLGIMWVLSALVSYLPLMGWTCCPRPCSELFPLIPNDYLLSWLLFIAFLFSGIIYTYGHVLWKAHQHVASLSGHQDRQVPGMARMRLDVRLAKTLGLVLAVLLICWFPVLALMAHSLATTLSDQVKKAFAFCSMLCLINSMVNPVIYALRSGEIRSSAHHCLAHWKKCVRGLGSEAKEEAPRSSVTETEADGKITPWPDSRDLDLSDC
observable: Ki

Entry under test: Cn1c(=O)cnn(CCCCN2CCN(c3cccc4ccc(O[11CH3])cc34)CC2)c1=O . Its Ki was > 10 µM

---

Biological target: Histamine H4 receptor (Homo sapiens, UniProt Q9H3N8)
Sequence (Q9H3N8 whole entry): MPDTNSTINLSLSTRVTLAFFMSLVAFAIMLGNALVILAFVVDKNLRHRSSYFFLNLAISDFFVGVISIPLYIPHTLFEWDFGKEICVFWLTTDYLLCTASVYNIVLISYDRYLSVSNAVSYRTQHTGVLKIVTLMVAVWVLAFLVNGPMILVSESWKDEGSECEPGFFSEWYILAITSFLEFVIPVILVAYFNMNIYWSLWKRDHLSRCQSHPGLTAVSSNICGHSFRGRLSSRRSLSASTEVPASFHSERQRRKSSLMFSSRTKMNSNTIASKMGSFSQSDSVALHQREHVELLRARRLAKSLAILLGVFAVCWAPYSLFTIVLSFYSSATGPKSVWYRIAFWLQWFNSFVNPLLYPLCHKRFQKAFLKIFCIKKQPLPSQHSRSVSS
observable: Ki

The observed Ki for Cn1c(=O)cnn(CCCCN2CCN(c3cccc4ccc(O[11CH3])cc34)CC2)c1=O when tested with Histamine H4 receptor (Homo sapiens, UniProt Q9H3N8) stands at > 10 µM

---

Target: Sodium-dependent serotonin transporter (Homo sapiens, UniProt P31645)
Sequence (P31645 whole entry): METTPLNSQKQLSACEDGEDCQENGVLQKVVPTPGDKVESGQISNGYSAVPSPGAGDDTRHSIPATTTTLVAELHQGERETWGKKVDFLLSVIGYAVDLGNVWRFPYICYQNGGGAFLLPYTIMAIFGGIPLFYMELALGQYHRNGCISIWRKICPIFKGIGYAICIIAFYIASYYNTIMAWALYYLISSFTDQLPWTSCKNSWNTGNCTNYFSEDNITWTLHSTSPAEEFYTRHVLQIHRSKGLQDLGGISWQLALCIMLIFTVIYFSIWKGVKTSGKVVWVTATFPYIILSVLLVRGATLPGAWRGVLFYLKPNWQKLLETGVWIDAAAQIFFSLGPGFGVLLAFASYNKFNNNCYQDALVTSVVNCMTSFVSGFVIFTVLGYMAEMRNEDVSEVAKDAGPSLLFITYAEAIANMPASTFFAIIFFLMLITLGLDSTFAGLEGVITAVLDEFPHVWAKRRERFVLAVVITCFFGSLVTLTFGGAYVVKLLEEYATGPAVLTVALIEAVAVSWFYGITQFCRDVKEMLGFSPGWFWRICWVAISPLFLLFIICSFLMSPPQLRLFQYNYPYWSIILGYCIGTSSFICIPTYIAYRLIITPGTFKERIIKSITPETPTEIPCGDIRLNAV
observable: pKi
pKi here is simply -log10 of the concentration when that concentration is written in mol/L.

Entry under test: Cn1c(=O)cnn(CCCCN2CCN(c3cccc4ccc(O[11CH3])cc34)CC2)c1=O . Its pKi was 5.21

---

Molecular target: 5-hydroxytryptamine receptor 1A (Homo sapiens, UniProt P08908)
Sequence (P08908 whole entry): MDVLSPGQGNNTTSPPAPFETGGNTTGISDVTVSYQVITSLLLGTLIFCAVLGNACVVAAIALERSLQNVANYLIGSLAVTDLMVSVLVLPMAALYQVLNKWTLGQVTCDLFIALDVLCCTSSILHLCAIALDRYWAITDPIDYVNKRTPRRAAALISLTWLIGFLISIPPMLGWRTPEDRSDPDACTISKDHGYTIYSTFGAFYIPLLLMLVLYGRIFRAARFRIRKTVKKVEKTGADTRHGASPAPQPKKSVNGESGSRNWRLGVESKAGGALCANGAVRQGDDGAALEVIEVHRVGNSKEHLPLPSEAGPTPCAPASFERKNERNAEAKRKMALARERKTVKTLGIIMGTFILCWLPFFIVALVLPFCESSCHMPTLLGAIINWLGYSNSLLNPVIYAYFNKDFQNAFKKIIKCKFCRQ
Experiment: Agonistic activity at human 5HT1A in CHO cells by the inhibition of forskolin-stimulated cAMP accumulation
Format: functional, cell-based
observable: pEC50
pEC50 here is simply -log10 of the concentration when that concentration is written in mol/L.

The observed pEC50 for Cn1c(=O)cnn(CCCCN2CCN(c3cccc4ccc(O[11CH3])cc34)CC2)c1=O when tested with 5-hydroxytryptamine receptor 1A (Homo sapiens, UniProt P08908) stands at 11.00

---

Target: Mu-type opioid receptor (Homo sapiens, UniProt P35372)
Sequence (P35372 whole entry): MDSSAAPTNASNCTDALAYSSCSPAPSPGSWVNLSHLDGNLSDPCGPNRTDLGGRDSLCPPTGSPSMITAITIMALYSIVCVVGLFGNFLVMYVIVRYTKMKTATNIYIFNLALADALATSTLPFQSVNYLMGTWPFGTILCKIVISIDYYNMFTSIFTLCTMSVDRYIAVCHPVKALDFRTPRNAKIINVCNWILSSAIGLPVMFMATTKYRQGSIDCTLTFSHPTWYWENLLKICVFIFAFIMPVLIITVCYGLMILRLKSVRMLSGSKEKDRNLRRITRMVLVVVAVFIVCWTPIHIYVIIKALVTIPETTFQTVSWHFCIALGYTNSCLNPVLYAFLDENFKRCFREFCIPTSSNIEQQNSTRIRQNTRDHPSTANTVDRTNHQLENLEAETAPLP
pKi: −log10 of the molar value.
observable: pKi

Entry under test: Cn1c(=O)cnn(CCCCN2CCN(c3cccc4ccc(O[11CH3])cc34)CC2)c1=O . Its pKi was < 5.00

---

Assay: Binding affinity to mGluR
pKi: −log10 of the molar value.
observable: pKi

Entry under test: Cn1c(=O)cnn(CCCCN2CCN(c3cccc4ccc(O[11CH3])cc34)CC2)c1=O . Its pKi was < 5.00
